System: SR leukemia
Experiment: NCI tumour cell line growth inhibition, 48 h; in the data active means GI50 below about 0.43 µM; inactive means the rest
Log the outcome using a class from active, inactive

Q: Outcome? COc1ccccc1C1C(C#N)=C(N)Oc2cc(O)ccc21 (stereo not given)
A: inactive

Q: Outcome? NC(CSC(c1ccccc1)(c1ccccc1)c1ccc(F)cc1)C(=O)O (stereo not given)
A: active

Q: Outcome? C=C1C(=O)O[C@H]2[C@H]1CC/C(COC(=O)NCCc1cccc(OC)c1)=C\CC[C@@]1(C)O[C@@H]21
A: inactive

Q: Outcome? COc1cc(NC(C)CCCNC(C)C)c2ncccc2c1OC (stereo not given)
A: inactive

Q: Outcome? NCCOc1ncccc1/C=C1\c2ccccc2-c2ccc([N+](=O)[O-])cc21
A: active

----------
Tested on: A549 NSCLC
Test: NCI tumour cell line growth inhibition, 48 h
Provide the reported GI50 of each item.

GI50 reading for CCC[CH2][Sn]([CH2]CCC)([CH2]CCC)[O]C(=O)C(OC)c1ccccc1 (centres undefined) : 117 nM

GI50 reading for Cc1noc(C)c1-c1cnc2c(-c3ccc(C(=O)O)cc3)cn([C@@H](C)c3ccccn3)c2c1 : 3250 nM

GI50 reading for CCOc1ccc(C(C)=O)cc1NC(=O)c1cccc(-c2nnn(CC)n2)c1 : 892 nM

GI50 reading for Cn1cncc1-c1c(F)cncc1NC(=O)c1c(N)nn2cc(F)cnc12 : 2270 nM

GI50 reading for CC(=O)O[C@H](C[C@H](C(C)C)N(C)C(=O)[C@@H](NC(=O)[C@H]1CCCCN1C)C(C)C)c1cccc(C(=O)N[C@@H](Cc2ccccc2)C[C@H](C)C(=O)O)n1 : 66.6 nM

GI50 reading for COc1ccc(-c2n[nH]nc2-c2cc(OC)c3c(c2)OCO3)cc1 : 23.9 nM

GI50 reading for CC1=C(C#N)C(/C=C(\Cl)c2ccc(F)cc2)C(C#N)=C(C)N1 : > 100000 nM

GI50 reading for COc1ccc2c(c1)O/C(=C\c1cccc(OCC(=O)Nc3nc(C)c(C)s3)c1)C2=O : 2180 nM

GI50 reading for COc1ccccc1C1C(C#N)=C(N)Oc2cc(O)ccc21 (centres undefined) : 26800 nM

GI50 reading for CCN(CC)c1ccc2nc3ccc(N=Nc4ccc(O)cc4)cc3[n+](-c3ccccc3)c2c1 : 4850 nM

GI50 reading for O=C1Nc2ccccc2/C1=C/c1cn(CC(O)Cn2cc(/C=C3\C(=O)Nc4ccccc43)c3ccccc32)c2ccccc12 (centres undefined) : 1510 nM

GI50 reading for COc1cc(NC(C)CCCNC(C)C)c2ncccc2c1OC (centres undefined) : > 100000 nM

GI50 reading for CC12OC(C(=O)C13CCC3)C1C(=O)c3ccc4c(ccc5ccccc54)c3C(=O)C12 (centres undefined) : 19500 nM

GI50 reading for Cc1ccc(O)c(NC2=C(Cl)C(=O)N(Cc3ccccc3)C2=O)c1 : 27100 nM

----------
Test system: OVCAR-8 ovarian
Assay: NCI tumour cell line growth inhibition, 48 h; in the data active = GI50 below about 0.43 µM; inactive = the rest
Log the outcome using a class from yes for active, no for inactive

Q: Outcome? COc1ccc(-c2nsc3c2NC(=O)CC3c2cccc(Cl)c2)cc1 (stereo not given)
A: no

Q: Outcome? COc1ccccc1C1C(C#N)=C(N)Oc2cc(O)ccc21 (stereo not given)
A: no

Q: Outcome? COc1cc2nc(-c3cccc4cccnc34)nc(NC3CCN(Cc4ccccc4)CC3)c2cc1OC
A: no

Q: Outcome? Nc1ccc(-c2ccc3ncc4ccc(=O)n(-c5cccc(C(F)(F)F)c5)c4c3c2)cn1
A: yes

Q: Outcome? Cn1cc(C2=C(c3ccccc3C(F)(F)F)C(=O)NC2=O)c2ccccc21
A: no
